Reference for the values: patent US20240059688A1

Would you kindly list Emax for each of these molecules?
target: ACKR3 (Homo sapiens, UniProt P25106); assay: ACKR3 β-arrestin recruitment assay (PathHunter, β-galactosidase complementation); assay type: cell-based; conditions: read-out: ACKR3 β-arrestin % CXCL12 Emax ± SEM
Sequence (P25106 whole entry): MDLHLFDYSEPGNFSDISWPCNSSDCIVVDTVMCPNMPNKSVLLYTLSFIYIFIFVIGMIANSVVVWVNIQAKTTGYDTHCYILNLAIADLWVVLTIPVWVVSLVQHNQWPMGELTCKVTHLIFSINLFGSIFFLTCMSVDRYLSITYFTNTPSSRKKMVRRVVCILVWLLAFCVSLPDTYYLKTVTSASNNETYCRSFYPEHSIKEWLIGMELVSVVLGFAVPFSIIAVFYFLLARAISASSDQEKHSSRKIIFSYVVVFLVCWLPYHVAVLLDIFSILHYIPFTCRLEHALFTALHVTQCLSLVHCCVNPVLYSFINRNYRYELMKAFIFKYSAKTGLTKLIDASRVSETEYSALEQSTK
Give the value, in units of %, as a plain number.

Lookup: Any idea what its Emax is? The molecule is C/C=C1/CN(CCCCCCC)CC[C@H]1C(=O)c1cc2ccccc2[nH]1
Found: 135

Lookup: Cool, now CCOC(=O)C1CCN(Cc2c[nH]c3ccccc23)CC1
Found: 146

Lookup: Cool, now C=C1c2[nH]c3ccccc3c2CN2CC[C@@H]1/C(=C\C)C2
Found: 81

Lookup: Cool, now O=C(N[C@H]1CCN(c2nccn3cccc23)C1)c1cc2ccccc2[nH]1
Found: 150

Lookup: Cool, now C/C=C1/CN(CCCC(C)C)CC[C@H]1C(=O)c1cc2ccccc2[nH]1
Found: 152

Lookup: Cool, now C/C=C1/CN(CCCCC)CC[C@H]1C(=O)c1cc2cc(Cl)ccc2[nH]1
Found: 129

Lookup: Cool, now C/C=C1/CN(CCCCC)CC[C@H]1C(=O)c1cc2ccc(F)cc2[nH]1
Found: 90

Lookup: Cool, now C/C=C1/CN(Cc2ccc(OC)cc2)CC[C@H]1C(=O)c1cc2ccccc2[nH]1
Found: 139

Lookup: Cool, now CCCCCN1CCN(C(=O)c2cc3ccccc3n2CCCCC)C2(CC2)C1
Found: 154

Lookup: Cool, now CCCCCN1CC[C@H](NC(=O)c2cc3ccccc3[nH]2)C1
Found: 145

Lookup: Cool, now CCCCCN1CCN(C(=O)c2cc3ccccc3[nH]2)C2(CC2)C1
Found: 156

Lookup: Cool, now C/C=C1/CN(CC2CCCCC2)CC[C@H]1C(=O)c1cc2ccccc2[nH]1
Found: 136

====

Would you kindly list Emax for each of these molecules?
target: KOR (Homo sapiens); assay: KOR calcium mobilization agonist/antagonist screen (CHO-RD-HGA16 cells); type: cell-based; set-up: host or cells: CHO-RD-HGA16; details: CHO-RD-HGA16; agonist screen, single concentration; control agonist U69,593
Sequence (P41145 whole entry): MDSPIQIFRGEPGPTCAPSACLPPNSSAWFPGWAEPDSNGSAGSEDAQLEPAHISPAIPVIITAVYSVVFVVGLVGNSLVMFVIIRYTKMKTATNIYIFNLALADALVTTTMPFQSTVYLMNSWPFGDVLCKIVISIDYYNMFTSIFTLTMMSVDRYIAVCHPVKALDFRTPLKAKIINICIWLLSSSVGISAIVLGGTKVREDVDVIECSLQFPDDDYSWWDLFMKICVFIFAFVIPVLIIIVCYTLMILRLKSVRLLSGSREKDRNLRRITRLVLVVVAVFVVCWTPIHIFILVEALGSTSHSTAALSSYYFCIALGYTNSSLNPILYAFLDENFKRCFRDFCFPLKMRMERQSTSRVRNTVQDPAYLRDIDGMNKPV
Give the value, in units of %, as a plain number.

Lookup: Any idea what its Emax is? The molecule is C/C=C1/CN2CC[C@H]1C(=O)c1[nH]c3ccc(Cl)cc3c1C2 [WW-2]
Found: 1

Lookup: Cool, now C/C=C1/CN(CCc2ccc(F)cc2)CC[C@H]1C(=O)c1cc2ccccc2[nH]1 [WW-9]
Found: 1

Lookup: Cool, now C/C=C1/CN(CC(C)C)CC[C@H]1C(=O)c1cc2ccccc2[nH]1 [WW-10]
Found: 7

Lookup: Cool, now C/C=C1/CN2CC[C@H]1C(=O)c1[nH]c3ccc(OC)cc3c1C2 [WW-5]
Found: 20
